Tested on: HIV
Assay: Table 1 IC50 of the examples (assay method not given; patent concerns inhibiting HIV replication)
Format: cell-based
Conditions: Human immunodeficiency virus 1
pIC50: −log10 of the molar value.
measured endpoint: pIC50

Solved cases below.
compound | pIC50
Cc1ccc(-c2c3c(cc(C)c2C(OC(C)(C)C)C(=O)O)N(C(=O)C2CCCCC2)CC3)cc1 (centres unmarked) | 7.82
Cc1cc2c(c(-c3cc(F)c4c(c3C)CCCO4)c1[C@H](OC(C)(C)C)C(=O)O)CCN2C(=O)c1cc(C(F)(F)F)ccc1F (atropisomer, axis not shown) | 7.14

I: COC(=O)c1cccc(CN2CCCc3c2cc(C)c(C(OC(C)(C)C)C(=O)O)c3-c2ccc(C)cc2)c1 (centres unmarked)
II: Cc1ccc(C(=O)N2CCc3c2cc(C)c([C@H](OC(C)(C)C)C(=O)O)c3-c2cc(F)c3c(c2C)CCCO3)cn1 (atropisomer, axis not shown)
QUERY: Of the two listed items, which has the higher pIC50? First: I Second: II Record your answer as the label of the chosen record.
RESULT: II

* * *

System: HIV
Experiment: Table 1 IC50 of the examples (assay method not given; patent concerns inhibiting HIV replication)
Format: cell-based
Details: Human immunodeficiency virus 1
measured endpoint: IC50 (nM)

molecule | tested on | test value
Cc1ccc(-c2c3c(cc(C)c2C(OC(C)(C)C)C(=O)O)N(Cc2ccc(F)c(F)c2)CCC3)cc1 (stereo not drawn) [Example 212] | HIV | 1030

A: COc1cccc(C(=O)N2CCc3c2cc(C)c([C@H](OC(C)(C)C)C(=O)O)c3-c2cc(F)c3c(c2C)CCCO3)c1C (atropisomer, axis not shown) [Example 67]
B: COc1cccc(C(=O)N2CCc3c2cc(C)c([C@H](OC(C)(C)C)C(=O)O)c3-c2ccc(C)cc2)c1 [Example 16]
QUERY: Quick one: lower IC50, A or B ? Record your answer as the label of the chosen record.
RESULT: A
(A: 5 nM, B: 12 nM)

* * *

Tested on: HIV
Assay: Table 1 IC50 of the examples (assay method not given; patent concerns inhibiting HIV replication)
Type: cell-based
Settings: Human immunodeficiency virus 1
measured endpoint: IC50 (nM)

1: COc1cccc(C(=O)N2CCc3c2cc(C)c([C@H](OC(C)(C)C)C(=O)O)c3-c2cc(F)c3c(c2C)CCCO3)c1OC (atropisomer, axis not shown)
2: Cc1cc2c(ccn2Cc2ccccn2)c(-c2cc(F)c3c(c2C)CCCO3)c1[C@H](OC(C)(C)C)C(=O)O (atropisomer, axis not shown)
3: Cc1cc2c(c(-c3cc(F)c4c(c3C)CCCO4)c1[C@H](OC(C)(C)C)C(=O)O)CCN2C(=O)C1CC1 (atropisomer, axis not shown)
4: COc1cc(C)cc(C(=O)N2CCc3c2cc(C)c([C@H](OC(C)(C)C)C(=O)O)c3-c2cc(F)c3c(c2C)CCCO3)c1 (atropisomer, axis not shown)
5: Cc1cncc(C(=O)N2CCc3c2cc(C)c([C@H](OC(C)(C)C)C(=O)O)c3-c2cc(F)c3c(c2C)CCCO3)c1 (atropisomer, axis not shown)
QUERY: I'd appreciate it if you could rank the compounds mentioned above by IC50, largest value first. Please respond by ranking the labels in the order requested.
RESULT: 3, 2, 1, 5, 4
(3: 414 nM, 2: 80 nM, 1: 41 nM, 5: 14 nM, 4: 3 nM)

* * *

Test system: HIV
Experiment: Table 1 IC50 of the examples (assay method not given; patent concerns inhibiting HIV replication)
Format: cell-based
Details: Human immunodeficiency virus 1
pIC50: −log10 of the molar value.
measured endpoint: pIC50

compound | pIC50
Cc1cc2c(c(-c3cc(F)c4c(c3C)CCCO4)c1[C@H](OC(C)(C)C)C(=O)O)CCN2C(=O)c1cnccc1Cl (atropisomer, axis not shown) | 7.77

A: Cc1cc2c(c(-c3cc(F)c4c(c3C)CCCO4)c1[C@H](OC(C)(C)C)C(=O)O)CCN2C(=O)c1ccc(C(F)(F)F)nc1 (atropisomer, axis not shown)
B: COc1ccc(C(=O)N2CCc3c2cc(C)c([C@H](OC(C)(C)C)C(=O)O)c3-c2cc(F)c3c(c2C)CCCO3)c(C)c1 (atropisomer, axis not shown)
QUERY: Quick one: lower pIC50, A or B ? Record your answer as the label of the chosen record.
RESULT: B

1: Cc1ccc(-c2c3c(cc(C)c2[C@H](OC(C)(C)C)C(=O)O)N(C(=O)c2ccc(F)cc2C)CC3)cc1
2: Cc1cc2c(c(-c3cc(F)c4c(c3C)CCCO4)c1[C@H](OC(C)(C)C)C(=O)O)CCN2C(=O)c1cccc(C(F)(F)F)c1F (atropisomer, axis not shown)
QUERY: Quick one: lower pIC50, 1 or 2 ? Record your answer as the label of the chosen record.
RESULT: 2
(2: 7.85, 1: 8.22)

* * *

System: HIV
Assay: Table 1 IC50 of the examples (assay method not given; patent concerns inhibiting HIV replication)
Format: cell-based
Conditions: Human immunodeficiency virus 1
measured endpoint: IC50 (nM)

Solved cases below.
molecule | unit text | test value
Cc1cc2c(c(-c3cc(F)c4c(c3C)CCCO4)c1[C@H](OC(C)(C)C)C(=O)O)CCN2C(=O)c1cccc2c1OCO2 (atropisomer, axis not shown) | nM | 5
COc1ccc(C(=O)N2CCc3c2cc(C)c([C@H](OC(C)(C)C)C(=O)O)c3-c2ccc3c(c2C)CCCO3)cc1C (atropisomer, axis not shown) | nM | 124

I: Cc1ccc(-c2c3c(cc(C)c2C(OC(C)(C)C)C(=O)O)N(S(=O)(=O)N2CCCCC2)CCC3)cc1 (stereo not shown)
II: Cc1cc(C)cc(C(=O)N2CCc3c2cc(C)c([C@H](OC(C)(C)C)C(=O)O)c3-c2cc(F)c3c(c2C)CCCO3)c1 (atropisomer, axis not shown)
QUERY: Quick one: lower IC50, I or II ? Record your answer as the label of the chosen record.
RESULT: II
(II: 5 nM, I: 3410 nM)

* * *

Tested on: HIV
Experiment: Table 1 IC50 of the examples (assay method not given; patent concerns inhibiting HIV replication)
Type: cell-based
Details: Human immunodeficiency virus 1
pIC50: −log10 of the molar value.
measured endpoint: pIC50

Solved cases below.
molecule | measured endpoint | test value
Cc1cccc(C(=O)N2CCc3c2cc(C)c([C@H](OC(C)(C)C)C(=O)O)c3-c2cc(F)c3c(c2C)CCCO3)c1C (atropisomer, axis not shown) [Example 121] | pIC50 | 8.15
Cc1cc2c(c(-c3cc(F)c4c(c3C)CCCO4)c1[C@H](OC(C)(C)C)C(=O)O)CCN2C(=O)c1cccc(Cl)c1C (atropisomer, axis not shown) [Example 66] | pIC50 | 8.22
Cc1cc2c(c(-c3cc(F)c4c(c3C)CCCO4)c1[C@H](OC(C)(C)C)C(=O)O)CCN2C(=O)C(=O)c1ccccc1 (atropisomer, axis not shown) [Example 175] | pIC50 | 7.05
COc1ccccc1C(=O)N1CCc2c1cc(C)c([C@H](OC(C)(C)C)C(=O)O)c2-c1ccc(C)cc1 [Example 17] | pIC50 | 7.96

I: COc1ccc(Cl)cc1C(=O)N1CCc2c1cc(C)c([C@H](OC(C)(C)C)C(=O)O)c2-c1cc(F)c2c(c1C)CCCO2 (atropisomer, axis not shown) [Example 50]
II: Cc1ccc(-c2c3c(cc(C)c2C(OC(C)(C)C)C(=O)O)N(CC(=O)c2ccccc2)CCC3)cc1 (stereo not drawn) [Example 207]
III: COc1ccc(C(=O)N2CCc3c2cc(C)c([C@H](OC(C)(C)C)C(=O)O)c3-c2ccc3c(c2C)CCCO3)c(OC)c1 (atropisomer, axis not shown) [Example 185]
IV: Cc1ccc(-c2c3c(cc(C)c2[C@H](OC(C)(C)C)C(=O)O)N(S(=O)(=O)c2ccc(F)c(F)c2)CC3)cc1 [Example 35]
V: COc1c(F)cccc1Cn1ccc2c(-c3cc(F)c4c(c3C)CCCO4)c([C@H](OC(C)(C)C)C(=O)O)c(C)cc21 (atropisomer, axis not shown) [Example 200]
QUERY: Would you mind ranking these molecules by ascending pIC50? Please respond by ranking the labels in the order requested.
RESULT: IV, II, V, III, I
(IV: 5.01, II: 5.46, V: 7.47, III: 8.05, I: 8.30)

* * *

System: HIV
Experiment: Table 1 IC50 of the examples (assay method not given; patent concerns inhibiting HIV replication)
Assay type: cell-based
Conditions: Human immunodeficiency virus 1
measured endpoint: IC50 (nM)

molecule | unit text | IC50
Cc1ccc(Cl)cc1C(=O)N1CCc2c1cc(C)c([C@H](OC(C)(C)C)C(=O)O)c2-c1cc(F)c2c(c1C)CCCO2 (atropisomer, axis not shown) | nM | 5

A: COc1ccc(C)cc1C(=O)N1CCc2c1cc(C)c([C@H](OC(C)(C)C)C(=O)O)c2-c1cc(F)c2c(c1C)CCCO2 (atropisomer, axis not shown)
B: COc1ccc(C(=O)N2CCc3c2cc(C)c([C@H](OC(C)(C)C)C(=O)O)c3-c2ccc3c(c2C)CCCO3)cc1OC (atropisomer, axis not shown)
QUERY: Quick one: lower IC50, A or B ? Record your answer as the label of the chosen record.
RESULT: A
(A: 4 nM, B: 6 nM)
